Test: Human HepG2 cell viability assay in 384 well format
Format: toxicity, cell-based
Design: dose 125 nL, time 70.5 hour; concentration not given beside the values
Details: HepG2 cells, read-out: Inhibition
The entries below come with measured cytotoxicity at 70.5 h values attached.
Write it as a number; the unit % goes unstated.

Known results for compounds:
CN(Cc1cccs1)C(=O)c1ccc(N2CCOCC2)c(F)c1    12.4
CCC(=O)N1CCC[C@]2(C(=O)N(C)C)CN(c3ccccn3)C[C@@H]2C1    -9.46
Cc1nc2ccccn2c1CN(Cc1cccnc1)CC1CCCO1 (centres undefined)    0.351
Cc1nc2c(c(=O)n1C)CN(C(=O)C1CCCN(CC(N)=O)C1)C2 (centres undefined)    8.71
CC(C)c1noc(CCCC(=O)NC(C)c2nnc3n2CCC3)n1 (centres undefined)    -4.68

Quick one: cytotoxicity at 70.5 h for CN(C(=O)c1cccc(C(=O)NS(C)(=O)=O)c1)c1ccccc1 ? -8.09

Likewise for COCC(=O)N[C@H](C(=O)NC(C)c1cc(C)ccc1C)C(C)C (some centres undefined) ? -0.855

Let us now turn to CCCN1Cc2ccccc2NC(=O)C12CCNC2 (centres undefined) -1.87

Same thing, different compound: Cc1nc(N)nc(C)c1Cc1nc(C2CC2)n[nH]1 -0.863

// repeat for Cc1cnn(CCCNC(=O)NC(C)C(=O)Nc2ccccc2)c1 (centres undefined) and report 6.05

Proceed to COCCN1CCOCC12CCN(Cc1ccn(C)n1)CC2 -5.01

Next up: Cc1ccc(CN2CCNC(=O)C2CC(=O)NCc2n[nH]c(C)n2)cc1 (centres undefined) -3.13

And then COC(=O)C1CCCN1C(=O)c1ccc(Br)cc1F (centres undefined) , what is it? 12.6

====

Test: Human HepG2 cell viability assay in 384 well format
Format: toxicity, cell-based
Set-up: dose 125 nL, time 70.5 hour; concentration not given beside the values
Settings: HepG2 cells, read-out: Inhibition
In this section we review reported cytotoxicity at 70.5 h values for a set of compounds.
Use % as the unit, but write only the number.

Look over these answered cases.
CN(C)CC1CN(c2cnc3ccccc3n2)CCO1 (configuration not stated)    11.3
Cc1ccc(CC(NC(=O)Cn2cnnn2)c2ccccn2)cc1 (configuration not stated)    -1.31
O=C(NCCn1ccnc1)C1COCC(=O)N1Cc1ccccc1 (configuration not stated)    9.74

Given the entry O=C(c1ccco1)N1CC[C@H]2[C@H]1CC(=O)N2c1cccnc1 , report its measured cytotoxicity at 70.5 h. 21.7

Please do the same for O=S(=O)(NCC1(O)CCOc2ccccc21)c1cccs1 (configuration not stated) as well. 3.15

Quick one: CCS(=O)(=O)N1CCC2(CN(c3cccc(C)n3)C2)C1 -4.08

====

Test: Human HepG2 cell viability assay in 384 well format
Assay type: toxicity, cell-based
Parameters: dose 125 nL, time 70.5 hour; concentration not given beside the values
Settings: HepG2 cells, read-out: Inhibition
recordedMetric: cytotoxicity at 70.5 h
Be sure to follow the number with its unit.

Which cytotoxicity at 70.5 h is listed for CC(C)c1nc(C(=O)N2CCCC(n3cncn3)C2)c[nH]1 (configuration not stated) ? -2.47%

Now consider CC(NC(=O)CCCOc1ccccc1Cl)c1ccncc1 (configuration not stated) and answer again. 13.5%

Check NC(=O)c1ccc(N2CCCCC2)c(NC(=O)c2cc(Br)ccc2F)c1 too. -5.55%

====

Catalogue of cytotoxicity at 70.5 h values
Experiment: Human HepG2 cell viability assay in 384 well format
Format: toxicity, cell-based
Design: dose 125 nL, time 70.5 hour; concentration not given beside the values
Conditions: HepG2 cells, read-out: Inhibition
Quick note: give the figure in %, leave out the unit.

c1ccc(-c2nc(CNC3CCc4ncnn4C3)cs2)cc1 (stereo not drawn)    0.00764
COCC1CN(C(=O)Cc2cccc(F)c2)Cc2ccnn2C1 (stereo not drawn)    -5.69
CCN1CCN(C(=O)Cn2nc(C(F)(F)F)c(Br)c2C2CC2)CC1    -7.97
Cc1nnc([C@@H]2CC[C@@H]3[C@@H](CCN3C3CCC3)O2)o1    -4.45
CC(=O)c1cc(CC(=O)NCc2ccc(F)cc2)cs1    -1.82

Fill blank: measured cytotoxicity at 70.5 h of the compound CCC(CC)CN1CCC(n2cc(C3CCCC3)nn2)CC1 is ____. -3.87

Please do the same for CC(C)OCCCNC(=O)CS(=O)(=O)Cc1cccc(Cl)c1 as well. -10.6

Item: c1cnc(N2CC[C@@H]3[C@@H]2CCN3Cc2cccs2)nc1 -4.98

Next compound up: O=C(NCCc1cccs1)[C@]12COC[C@H]1CN(Cc1ccccn1)C2 39.1

# repeat for O=C(c1ccoc1)N1CCO[C@]2(CCC[C@H]2COCc2cccnc2)C1 -0.748

Next compound up: O=C(C1CCC1)N1C[C@@H]2CC[C@H](C1)N(S(=O)(=O)c1cccnc1)C2 -5.86

And what about the compound CN(Cc1cccc(F)c1)C1CCN(CCc2ccccn2)CC1 ? 15.1

Can you handle COc1ccnc(NC(Cc2ccccc2)C(N)=O)n1 (stereo not drawn) next? -3.74

// next record C/C(=C\c1ccco1)CN(C)C(C)c1ccccn1 (stereo not drawn) 16.1

// next record N#Cc1cc(F)ccc1CN1CCCCC1Cn1cncn1 (stereo not drawn) -4.9

And for O=C(NCCN1C(=O)CCC1=O)c1nc2ccccc2c(=O)[nH]1 ? -12.2

# iterate: COc1c(C2SCC(=O)Nc3[nH]ncc32)cc2c(c1OC)OCO2 (stereo not drawn) -13.6

What about Cc1ncc(C(=O)N2CCC(C(=O)NC3CCCC3)C2)c(C)n1 (stereo not drawn) ? -6.35

Lookup CNC(=O)[C@H]1C[C@@H]2CN(S(=O)(=O)c3ccc(F)cc3)C[C@@H]2N1C 5.56

Same lookup for CC(C)[C@H](C)NC1CCN(c2ccc(-c3cscn3)cc2)CC1 , please. -14.3

Next record, please: CC1CN(Cc2nccn2C)CCN1c1ccc2nncn2n1 (stereo not drawn) 6.8

// query: O=C(c1cnccn1)N1CC[C@H]2C[C@@H](c3ccncn3)O[C@@H]2C1 -11.7

Query COCCN1CCC2(CC1)CN(C(=O)c1cccs1)CCO2 next 33.9

====

Test: Human HepG2 cell viability assay in 384 well format
Assay type: toxicity, cell-based
Set-up: dose 125 nL, time 70.5 hour; concentration not given beside the values
Conditions: HepG2 cells, read-out: Inhibition
recordedMetric: cytotoxicity at 70.5 h

Illustrative cases are given below, each with its answer.
CC[C@@H]1N(CC2CCOCC2)CCC[C@]12CCC(=O)N2    -6.16%
CN1C(=O)COc2ccc(C(=O)Cn3cnc4ccccc4c3=O)cc21    -12%
COC(=O)c1cnc2c(c(C)nn2C)c1OC    -3.27%
Cc1cc(F)ccc1NS(=O)(=O)c1cc2c(c(C(=O)O)c1)OCCO2    -4.92%

Recorded cytotoxicity at 70.5 h for Cc1cnc(N2CCCC3(COCCN(c4nccs4)C3)C2)nc1 (stereo unspecified) , please? -8.41%

Please do the same for CSc1nc2cc(C)n(CC(=O)NC(C)C)c2c(=O)n1CC(C)C as well. -4.16%

====

Assay: Human HepG2 cell viability assay in 384 well format
Format: toxicity, cell-based
Parameters: dose 125 nL, time 70.5 hour; concentration not given beside the values
Conditions: HepG2 cells, read-out: Inhibition
This listing pairs compounds with measured cytotoxicity at 70.5 h.
Your reply should be a number followed by the unit it is expressed in.

// solved cases for cytotoxicity at 70.5 h follow
O=C1C(NCc2nnc3n2CCCC3)CCN1CC(F)(F)F (stereo unspecified)    20.6%
O=C(NCCN1CCCCCC1)c1n[nH]c(=O)c2ccccc12    1.79%
Cc1c(C(=O)N2CCCOCC2)nnn1-c1cccc2cnccc12    -0.438%
Cc1nc(NCc2nncn2C2CC2)c2c(CC(C)C)csc2n1    20%
Cc1n[nH]c(C2CN(Cc3ncc(C(C)C)o3)CCO2)n1 (stereo unspecified)    0.362%

Look up cytotoxicity at 70.5 h: CN(CCc1cnn(C)c1)C(=O)Cn1c(=O)[nH]c2ccccc21 -6.43%

====

Reported values of cytotoxicity at 70.5 h for individual entries
Experiment: Human HepG2 cell viability assay in 384 well format
Assay type: toxicity, cell-based
Design: dose 125 nL, time 70.5 hour; concentration not given beside the values
Conditions: HepG2 cells, read-out: Inhibition
Returns: string containing the numeric result and its unit.

NC(=O)N1CCCC(C(=O)NCCOc2ccc(F)c(F)c2)C1 (stereo unspecified)    -12.7%
O=S(=O)(c1cccnc1)N1CCCC1COc1ccccc1 (stereo unspecified)    -4.52%
CCC1CN(C(=O)Nc2cnc3c(cnn3C(C)C)c2)CCO1 (stereo unspecified)    1.85%
CCOc1ccc(CN[C@@H]2COC[C@H]2c2ccc(F)cc2)cc1    29.1%
Cc1ncc(CC(=O)N2CCC3(CCC(=O)N(C4CC4)C3)CC2)c(=O)[nH]1    5.88%

Then this compound:
Please look up its cytotoxicity at 70.5 h: CCc1noc(CN2CCCC2c2noc(C3CC3)n2)n1 (stereo unspecified) 1.8%
